Experimental details: qHTS for Inhibitors of Plasmodium falciparum (DD2) proliferation (AID 504314);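 also: parasite DNA measured by SYBR Green fluorescence after red cell lysis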
Measurement parameters: P. falciparum Dd2 in erythrocytes, SYBR Green growth, 72 h; series mostly up to 6.11 µM
Inconclusive results are not listed. Activity calls are given as the source filed them. Calls follow the shape of the dose curve; as a rule, active = well fitted inhibition curve with a large enough effect; inconclusive = small, poorly fitted or top-dose-only effect; inactive = flat fitted curve, though single readings scatter.
Observed property: activity, negative = inhibition

As a guide, the following entries are already answered.
In [3]: df
Out[3]:
                                   molecule  readout_value
0  COC(=O)N[C@@H](C=Cc1ccco1)[C@]1(C(=O)OC)CCCC1=O       inactive
1  COC(=O)C(c1ccc(OC)c(OC)c1)C1c2ccccc2C=C(C)N1C(=O)OC (stereo not given)       inactive
2  C=CC1=C2C=C(C3CC3)N(CC3CC3)C=C2C(=O)C(C)(OC(=O)c2ccco2)C1=O (stereo not given)       inactive
3  COC(=O)C1=C(C)N(Cc2ccccc2)C(=NCc2ccccc2)NC1c1ccccc1 (stereo not given)       inactive
4  C=C(C)C(O)C=Cc1ccccc1OC (stereo not given)       inactive
5  C[C@@H]1CC[C@H]2C(=O)N(Cc3cccc([N+](=O)[O-])c3)C[C@@H](O)CN2[C@@H]1c1ccc(Br)cc1       inactive

The reported activity, negative = inhibition of the molecule "C=CCOC(=O)N[C@H](c1ccccc1)C(C(C)=O)C(C)=O" was inactive

Sure, the documented activity, negative = inhibition for "COC(=O)C1=C(C(=O)OC)[C@@H]2Nc3ccccc3[C@@]23C[C@@H](C(=O)OC)N(C(=O)NCCBr)C3=N1" is inactive
